From: ChEMBL document CHEMBL4706575

Molecular target: Nucleotide-binding oligomerization domain-containing protein 1 (Homo sapiens)
Test: Antagonist activity at NOD1 in HEK-Blue hNOD1 cells assessed as inhibition of C12-iE-DAP-induced NFkappaB activation-mediated SEAP release at 5 uM preincubated for 3 hrs followed by C12-iE-DAP addition and measured after 20 hrs by spectrophotometric method relative to control
Assay type: cell-based
Details: filed as antagonist, time 23.0 hrs
Outcome measure: inhibition

O=C(NCCOCc1ccc(C(F)(F)F)cc1)c1cc2nc[nH]c(=O)c2cc1-c1cccc(Cl)c1 | 64.4%

Dear reader, for each entry below, please note its inhibition.
1. COC(=O)Cn1cnc2cc(C(=O)NCCCOc3ccc(C(F)(F)F)cc3)c(-c3cccc(Cl)c3)cc2c1=O
2. COC(=O)Cn1cnc2cc(C(=O)NCCCc3ccc(Cl)cc3)c(-c3cccc(F)c3)cc2c1=O
3. CN(C)c1cccc(Oc2cc3c(=O)n(CC(=O)N4CCC(F)CC4)cnc3cc2NC(=O)COCc2ccc(C(F)(F)F)cc2)c1

// result
89.6%
65.3%
89.1%

----------
Target: Nucleotide-binding oligomerization domain-containing protein 1 (Homo sapiens) (UniProt Q9Y239)
Sequence (Q9Y239 whole entry, the tested form may be a part): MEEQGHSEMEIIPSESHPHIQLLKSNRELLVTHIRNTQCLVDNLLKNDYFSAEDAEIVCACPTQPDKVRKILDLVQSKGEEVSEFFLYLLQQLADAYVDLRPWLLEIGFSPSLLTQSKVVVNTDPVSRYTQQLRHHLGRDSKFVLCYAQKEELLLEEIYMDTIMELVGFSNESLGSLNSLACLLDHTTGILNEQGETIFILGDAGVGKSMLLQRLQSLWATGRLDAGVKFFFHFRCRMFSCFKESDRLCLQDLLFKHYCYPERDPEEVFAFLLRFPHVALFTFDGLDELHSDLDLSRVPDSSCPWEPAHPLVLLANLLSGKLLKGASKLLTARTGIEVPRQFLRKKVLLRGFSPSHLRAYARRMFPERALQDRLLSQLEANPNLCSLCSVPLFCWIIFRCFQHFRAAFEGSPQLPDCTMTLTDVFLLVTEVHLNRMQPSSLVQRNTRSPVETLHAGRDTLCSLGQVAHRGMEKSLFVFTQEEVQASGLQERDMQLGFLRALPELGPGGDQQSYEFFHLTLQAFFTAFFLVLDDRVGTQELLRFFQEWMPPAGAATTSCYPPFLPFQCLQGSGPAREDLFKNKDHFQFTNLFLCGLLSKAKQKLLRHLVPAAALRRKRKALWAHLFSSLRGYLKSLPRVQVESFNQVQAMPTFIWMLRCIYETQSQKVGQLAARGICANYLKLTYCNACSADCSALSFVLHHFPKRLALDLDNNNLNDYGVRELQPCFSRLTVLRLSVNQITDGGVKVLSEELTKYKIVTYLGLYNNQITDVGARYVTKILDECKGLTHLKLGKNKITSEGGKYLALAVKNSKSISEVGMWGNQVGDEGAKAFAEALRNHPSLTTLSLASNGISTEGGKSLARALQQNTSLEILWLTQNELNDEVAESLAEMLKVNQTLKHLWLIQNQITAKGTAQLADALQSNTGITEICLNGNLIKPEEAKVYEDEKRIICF
Experiment: Antagonist activity at NOD1 in HEK-Blue hNOD1 cells assessed as inhibition of C12-iE-DAP-induced NFkappaB activation-mediated SEAP release at 5 uM preincubated for 3 hrs followed by C12-iE-DAP addition and measured after 20 hrs by spectrophotometric method relative to control
Type: cell-based
Details: filed as antagonist, time 23.0 hrs
Outcome measure: inhibition (%)
Give bare numbers, in %.

Examples with their reported inhibition follow.
O=C(NCCCOc1ccc(C(F)(F)F)cc1)c1cc2nc[nH]c(=O)c2cc1-c1cccc(Cl)c1 | 90
CN(C)c1cccc(Oc2cc3c(=O)[nH]cnc3cc2NC(=O)COCc2ccc(C(F)(F)F)cc2)c1 | 50.4
CN(C)c1cccc(Oc2cc3c(=O)[nH]cnc3cc2NC(=O)CCCOc2ccc(C(F)(F)F)cc2)c1 | 59.1

// for each molecule in input: emit inhibition
1. O=C(NCCCc1ccc(Cl)cc1)c1cc2nc[nH]c(=O)c2cc1-c1cccc(F)c1
2. COC(=O)Cn1cnc2cc(NC(=O)COCc3ccc(Cl)cc3)c(Oc3cccc(N(C)C)c3)cc2c1=O
3. O=C(NCCOCc1ccc(C(F)(F)F)cc1)c1cc2nc[nH]c(=O)c2cc1-c1cccc(C(F)(F)F)c1
4. COC(=O)Cn1cnc2cc(NC(=O)COCc3ccc(C(F)(F)F)cc3)c(Oc3cccc(N4CCOCC4)c3)cc2c1=O
5. COC(=O)Cn1cnc2cc(NC(=O)CCCOc3ccc(C(F)(F)F)cc3)c(Oc3ccc(N(C)C)cc3)cc2c1=O

// result
43.5
69
72.4
88.9
68.4

----------
Target: Nucleotide-binding oligomerization domain-containing protein 1 (Homo sapiens) (UniProt Q9Y239)
Experiment: Antagonist activity at NOD1 in HEK-Blue hNOD1 cells assessed as inhibition of C12-iE-DAP-induced NFkappaB activation-mediated SEAP release at 5 uM preincubated for 3 hrs followed by C12-iE-DAP addition and measured after 20 hrs by spectrophotometric method relative to control
Format: cell-based
Details: time 23.0 hrs
Label Condition met when inhibition is at or above 30%; anything below gets Condition not met.

Solved cases (10 shown):
O=C(NCCCc1ccccc1)c1cc2nc[nH]c(=O)c2cc1-c1cccc(Cl)c1 | Condition not met
O=C(NCCCc1ccccc1)c1cc2nc[nH]c(=O)c2cc1-c1cccc(C(F)(F)F)c1 | Condition not met
O=C(NCCCc1ccccc1)c1cc2nc[nH]c(=O)c2cc1-c1cccc(F)c1 | Condition not met
O=C(O)Cn1cnc2cc(C(=O)NCCCOc3ccc(C(F)(F)F)cc3)c(-c3cccc(Cl)c3)cc2c1=O | Condition not met
COC(=O)Cn1cnc2cc(C(=O)NCCCc3ccccc3)c(-c3cccc(F)c3)cc2c1=O | Condition not met
COC(=O)Cn1cnc2cc(NC(=O)CCCOc3ccc(F)cc3)c(Oc3cccc(N(C)C)c3)cc2c1=O | Condition met
CN(C)c1cccc(Oc2cc3c(=O)[nH]cnc3cc2NC(=O)c2ccc(C#N)cc2)c1 | Condition not met
O=C(COCc1ccc(C(F)(F)F)cc1)Nc1cc2nc[nH]c(=O)c2cc1Oc1cccc(N2CCOCC2)c1 | Condition met
COC(=O)Cn1cnc2cc(NC(=O)COCc3ccc(F)cc3)c(Oc3cccc(N(C)C)c3)cc2c1=O | Condition met
O=C(NCCCc1ccc(Cl)cc1)c1cc2nc[nH]c(=O)c2cc1-c1cccc(C(F)(F)F)c1 | Condition met

// query Form field: inhibition at least 30%? Entry: "COC(=O)Cn1cnc2cc(NC(=O)c3ccc(C#N)cc3)c(Oc3cccc(N(C)C)c3)cc2c1=O"
// result Condition not met

// query Check "COC(=O)Cn1cnc2cc(NC(=O)CCCOc3ccc(C(F)(F)F)cc3)c(Oc3ccccc3)cc2c1=O" too.
// result Condition not met

// query Follow-up entry: "COC(=O)Cn1cnc2cc(NC(=O)c3ccc(C(F)(F)F)cc3)c(Oc3cccc(N(C)C)c3)cc2c1=O"
// result Condition met
